Data provenance is the supplement of paper PMC10307832.

- Tested on: Calu-6
- Protocol details: relative viability (nuclei count vs DMSO), 5 days (fraction); higher = more cells survive
- Condition info: first compound 0.253 µM
Give measured relative viability for each item. Keep answers brief.
Numbers only.

List reported relative viability for each of these molecules:
1. O=c1cc(-c2cccc3c2Sc2ccccc2S3)oc(N2CCOCC2)c1 + C[C@@H](Oc1cc(-c2cnn(C3CCNCC3)c2)cnc1N)c1c(Cl)ccc(F)c1Cl [Crizotinib] (partner 1 µM)
2. COc1nc(C)cnc1NS(=O)(=O)c1cccnc1-c1ccc(-c2nnco2)cc1 [Zibotentan] + COc1cc2c(Oc3ccc(NC(=O)C4(C(=O)Nc5ccc(F)cc5)CC4)cc3F)ccnc2cc1OCCCN1CCOCC1 [Foretinib] (partner 0.25 µM)
3. COc1nc(C)cnc1NS(=O)(=O)c1cccnc1-c1ccc(-c2nnco2)cc1 [Zibotentan] + CC(C)C[C@H](NC(=O)[C@H](Cc1ccccc1)NC(=O)c1cnccn1)B(O)O [Bortezomib] (partner 0.002 µM)
4. COc1nc(C)cnc1NS(=O)(=O)c1cccnc1-c1ccc(-c2nnco2)cc1 [Zibotentan] + CC1(C)CCC(c2ccc(Cl)cc2)=C(CN2CCN(c3ccc(C(=O)NS(=O)(=O)c4ccc(N[C@H](CCN5CCOCC5)CSc5ccccc5)c(S(=O)(=O)C(F)(F)F)c4)cc3)CC2)C1 [Navitoclax] (partner 0.5 µM)
5. O=c1cc(-c2cccc3c2Sc2ccccc2S3)oc(N2CCOCC2)c1 + O=C(c1cc(Cc2n[nH]c(=O)c3ccccc23)ccc1F)N1CCN(C(=O)C2CC2)CC1 [Olaparib] (partner 8 µM)
6. COc1nc(C)cnc1NS(=O)(=O)c1cccnc1-c1ccc(-c2nnco2)cc1 [Zibotentan] + O=C(c1cc(Cc2n[nH]c(=O)c3ccccc23)ccc1F)N1CCN(C(=O)C2CC2)CC1 [Olaparib] (partner 8 µM)

[0.839, 0.947, 0.888, 0.79, 0.636, 0.518]

====

Please respond with reported relative viability for every item in the list.
- Test system: NCI-H2023
- Protocol details: relative viability (nuclei count vs DMSO), 5 days (fraction); higher = more cells survive
- Condition info: first compound 0.03162 µM
Numbers only.

Here are 5 molecules together with their reported answers.
CCN(CC)CCCCNc1ncc2cc(-c3cc(OC)cc(OC)c3)c(NC(=O)NC(C)(C)C)nc2n1 + COc1cc2c(Oc3ccc(NC(=O)C4(C(=O)Nc5ccc(F)cc5)CC4)cc3F)ccnc2cc1OCCCN1CCOCC1 [Foretinib] (partner 0.25 µM) : 0.961
O=c1cc(N2CCOCC2)oc2c(-c3cccc4c3sc3ccccc34)cccc12 + O=C(c1cc(Cc2n[nH]c(=O)c3ccccc23)ccc1F)N1CCN(C(=O)C2CC2)CC1 [Olaparib] (partner 8 µM) : 0.471
O=c1cc(N2CCOCC2)oc2c(-c3cccc4c3sc3ccccc34)cccc12 + CCNC(=O)c1noc(-c2cc(C(C)C)c(O)cc2O)c1-c1ccc(CN2CCOCC2)cc1 [Luminespib] (partner 0.01 µM) : 0.72
CCN(CC)CCCCNc1ncc2cc(-c3cc(OC)cc(OC)c3)c(NC(=O)NC(C)(C)C)nc2n1 + COc1cccc2cc(-c3nc([C@H]4CC[C@H](C(=O)O)CC4)n4ncnc(N)c34)[nH]c12 [OSI-027] (partner 0.5 µM) : 0.452
O=c1cc(N2CCOCC2)oc2c(-c3cccc4c3sc3ccccc34)cccc12 + N=C(N)NC(=N)NCCc1ccccc1 [Phenformin] (partner 250 µM) : 0.397

Would you mind listing relative viability for each of the following molecules?
1. CCN(CC)CCCCNc1ncc2cc(-c3cc(OC)cc(OC)c3)c(NC(=O)NC(C)(C)C)nc2n1 + CC(=O)c1c(C)c2cnc(Nc3ccc(N4CCNCC4)cn3)nc2n(C2CCCC2)c1=O [Palbociclib] (partner 0.5 µM)
2. CCN(CC)CCCCNc1ncc2cc(-c3cc(OC)cc(OC)c3)c(NC(=O)NC(C)(C)C)nc2n1 + O=C(CCCCCCC(=O)Nc1ccccc1)NO [Vorinostat] (partner 1 µM)
3. O=c1cc(N2CCOCC2)oc2c(-c3cccc4c3sc3ccccc34)cccc12 + Nc1nc2[nH]cc(CCc3ccc(C(=O)N[C@@H](CCC(=O)O)C(=O)O)cc3)c2c(=O)[nH]1 [Pemetrexed] (partner 0.2 µM)
4. CCN(CC)CCCCNc1ncc2cc(-c3cc(OC)cc(OC)c3)c(NC(=O)NC(C)(C)C)nc2n1 + CS(=O)(=O)N1CCN(Cc2cc3nc(-c4cccc5[nH]ncc45)nc(N4CCOCC4)c3s2)CC1 [Pictilisib] (partner 1 µM)
5. O=c1cc(N2CCOCC2)oc2c(-c3cccc4c3sc3ccccc34)cccc12 + Cc1cc(Nc2cc(N3CCN(C)CC3)nc(Sc3ccc(NC(=O)C4CC4)cc3)n2)n[nH]1 [Tozasertib] (partner 0.1 µM)

[0.32, 0.756, 0.276, 0.222, 0.402]
